# experimentalSystem: SRPK2 (human) (UniProt P78362)
# Sequence (P78362 whole entry, looked up): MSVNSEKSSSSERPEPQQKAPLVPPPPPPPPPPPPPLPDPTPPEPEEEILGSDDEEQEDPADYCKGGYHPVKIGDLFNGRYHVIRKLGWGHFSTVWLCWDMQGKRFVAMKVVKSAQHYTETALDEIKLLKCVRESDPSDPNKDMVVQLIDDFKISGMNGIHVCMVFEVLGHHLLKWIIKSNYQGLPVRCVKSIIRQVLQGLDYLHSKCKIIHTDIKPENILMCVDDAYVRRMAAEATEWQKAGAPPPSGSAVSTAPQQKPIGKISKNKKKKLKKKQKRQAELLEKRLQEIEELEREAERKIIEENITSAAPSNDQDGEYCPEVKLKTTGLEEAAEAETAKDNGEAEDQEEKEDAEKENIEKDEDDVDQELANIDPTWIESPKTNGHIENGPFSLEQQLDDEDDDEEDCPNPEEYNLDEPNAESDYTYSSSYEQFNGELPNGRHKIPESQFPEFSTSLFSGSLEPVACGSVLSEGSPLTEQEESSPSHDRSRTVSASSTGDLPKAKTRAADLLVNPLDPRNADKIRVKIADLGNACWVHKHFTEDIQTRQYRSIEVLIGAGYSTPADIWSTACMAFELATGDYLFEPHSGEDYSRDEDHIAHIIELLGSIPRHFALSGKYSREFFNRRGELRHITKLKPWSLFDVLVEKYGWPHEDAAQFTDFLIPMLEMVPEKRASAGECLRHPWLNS
# experimentalDetails: KINOMEscan competition binding
# conditionDetails: compound 1.0 µM

>  <smilesNotation>
CN(C)C/C=C/C(=O)Nc1cccc(C(=O)Nc2ccc(Nc3nccc(-c4cccnc4)n3)cc2)c1

>  <kinase still bound, per cent of control / %>
70

$$$$
>  <smilesNotation>
CN(C)C/C=C/C(=O)Nc1cccc(C(=O)Nc2ccc(Nc3nccc(-c4c(-c5ccccc5)nn5ccccc45)n3)cc2)c1

>  <kinase still bound, per cent of control / %>
85

$$$$
>  <smilesNotation>
Cc1cc(NC(=O)c2cccc(NC(=O)/C=C/CN(C)C)c2)ccc1Nc1nccc(-c2cccnc2)n1

>  <kinase still bound, per cent of control / %>
100

$$$$
>  <smilesNotation>
CN(C)C/C=C/C(=O)Nc1cccc(C(=O)Nc2ccc(Nc3nccc(/C(C#N)=C4\Nc5ccccc5S4)n3)cc2)c1

>  <kinase still bound, per cent of control / %>
100

$$$$
